- TESTED_SYSTEM: hERG (KCNH2) (Homo sapiens)
- PROCEDURE_TEXT: Inhibition of human ERG at 10 uM incubated for 2 hrs by fluorescence polarization assay relative to control
// inhibition at 2 h, 10 µM lookup, one value per entry
ASSAY_METRIC: inhibition at 2 h, 10 µM (%)

>>> recorded_measurement("COc1cccc2oc(-c3cc(C)cs3)c(O)c(=O)c12")
-7.47
>>> recorded_measurement("COc1ccc2c(=O)c(O)c(-c3csc4ccccc34)oc2c1")
-4.35
>>> recorded_measurement("COc1ccc2oc(-c3csc4ccccc34)c(OC(C)=O)c(=O)c2c1")
-30
>>> recorded_measurement("CCOc1ccc2c(=O)c(O)c(-c3csc4ccccc34)oc2c1")
-3.21

----------
// viability at 48 h lookup, one value per entry
- PROCEDURE_TEXT: Cytotoxicity against human A549 cells assessed as cell growth at […] incubated for 48 hrs by Celltiter-Glo luminescence assay relative to control
- Format: cell-based
- Set-up: dose or concentration left out as unconfirmed
- CONDITION_SET: read-out: Activity
ASSAY_METRIC: viability at 48 h (%)

>>> recorded_measurement("COc1ccc2oc(-c3cccc(-c4ccc5c(c4)OCO5)c3)c(O)c(=O)c2c1")
30.5
>>> recorded_measurement("Cc1ccc2c(=O)c(O)c(-c3csc4ccccc34)oc2c1")
50.1
>>> recorded_measurement("Cc1ccc2oc(-c3csc4ccccc34)c(O)c(=O)c2c1")
129
>>> recorded_measurement("COc1ccc2oc(-c3csc4ccccc34)c(O)c(=O)c2c1")
3.19

----------
// inhibition at 0.5 h, 10 µM lookup, one value per entry
- TESTED_SYSTEM: UniProtKB P08684
- Sequence (P08684 whole entry): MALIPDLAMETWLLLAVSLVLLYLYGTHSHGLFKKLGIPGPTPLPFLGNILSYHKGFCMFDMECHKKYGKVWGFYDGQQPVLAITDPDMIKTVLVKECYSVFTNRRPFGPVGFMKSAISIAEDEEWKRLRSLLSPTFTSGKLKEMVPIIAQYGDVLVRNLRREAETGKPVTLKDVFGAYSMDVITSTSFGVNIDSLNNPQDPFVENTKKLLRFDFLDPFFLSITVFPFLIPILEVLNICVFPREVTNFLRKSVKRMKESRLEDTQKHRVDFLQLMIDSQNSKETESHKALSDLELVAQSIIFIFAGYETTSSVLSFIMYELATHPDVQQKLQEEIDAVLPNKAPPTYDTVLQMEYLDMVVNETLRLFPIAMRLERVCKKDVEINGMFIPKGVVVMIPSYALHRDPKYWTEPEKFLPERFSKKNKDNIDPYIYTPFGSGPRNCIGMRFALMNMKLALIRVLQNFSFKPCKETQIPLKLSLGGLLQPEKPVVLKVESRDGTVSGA
- PROCEDURE_TEXT: Inhibition of human microsomal CYP3A4 expressed in baculovirus infected insect cells at 10 uM using luciferin-IPA as substrate preincubated with enzyme/substrate mixture for 30 mins followed by further incubation with NADPH for 30 mins by CYP450 luciferase Glo assay relative to control
- Assay type: ADME
- CONDITION_SET: probe luciferin-IPA
ASSAY_METRIC: inhibition at 0.5 h, 10 µM (%)

>>> recorded_measurement("Cc1ccc2oc(-c3ccc(C)s3)c(O)c(=O)c2c1")
10.4
>>> recorded_measurement("COc1ccc2oc(-c3cn(C)c4ccccc34)c(O)c(=O)c2c1")
22
>>> recorded_measurement("Cc1ccc2oc(-c3csc4ccccc34)c(O)c(=O)c2c1")
-19.3
>>> recorded_measurement("O=c1c(O)c(-c2c[nH]c3ccccc23)oc2ccc(O)cc12")
18.7
>>> recorded_measurement("Cc1csc(-c2oc3ccc(C)cc3c(=O)c2O)c1")
23.5
>>> recorded_measurement("CCCCC(=O)Oc1c(-c2csc3ccccc23)oc2ccc(OC)cc2c1=O")
61.8

----------
- System: Trypanosoma brucei
- PROCEDURE_TEXT: Antitrypanosomal activity against Trypanosoma brucei bloodstream form assessed as parasite growth inhibition incubated for 72 hrs by resazurin dye based assay
- Assay type: functional, organism-based
ASSAY_METRIC: EC50

>>> recorded_measurement("CCOc1c(-c2csc3ccccc23)oc2ccc(OC)cc2c1=O")
"Not Active"
>>> recorded_measurement("CCOc1ccc2c(=O)c(O)c(-c3csc4ccccc34)oc2c1")
"Not Active"
>>> recorded_measurement("COc1ccc2oc(-c3ccc4ncccc4c3)c(O)c(=O)c2c1")
"Not Active"
>>> recorded_measurement("Cc1ccsc1-c1oc2cc(O)ccc2c(=O)c1O")
"Not Active"
>>> recorded_measurement("Cc1csc(-c2oc3cccc(O)c3c(=O)c2O)c1")
"Not Active"
>>> recorded_measurement("COc1ccc2c(=O)c(O)c(-c3ccco3)oc2c1")
"Not Active"

----------
- TESTED_SYSTEM: hERG (KCNH2) (Homo sapiens, UniProt Q12809)
- Sequence (Q12809 whole entry): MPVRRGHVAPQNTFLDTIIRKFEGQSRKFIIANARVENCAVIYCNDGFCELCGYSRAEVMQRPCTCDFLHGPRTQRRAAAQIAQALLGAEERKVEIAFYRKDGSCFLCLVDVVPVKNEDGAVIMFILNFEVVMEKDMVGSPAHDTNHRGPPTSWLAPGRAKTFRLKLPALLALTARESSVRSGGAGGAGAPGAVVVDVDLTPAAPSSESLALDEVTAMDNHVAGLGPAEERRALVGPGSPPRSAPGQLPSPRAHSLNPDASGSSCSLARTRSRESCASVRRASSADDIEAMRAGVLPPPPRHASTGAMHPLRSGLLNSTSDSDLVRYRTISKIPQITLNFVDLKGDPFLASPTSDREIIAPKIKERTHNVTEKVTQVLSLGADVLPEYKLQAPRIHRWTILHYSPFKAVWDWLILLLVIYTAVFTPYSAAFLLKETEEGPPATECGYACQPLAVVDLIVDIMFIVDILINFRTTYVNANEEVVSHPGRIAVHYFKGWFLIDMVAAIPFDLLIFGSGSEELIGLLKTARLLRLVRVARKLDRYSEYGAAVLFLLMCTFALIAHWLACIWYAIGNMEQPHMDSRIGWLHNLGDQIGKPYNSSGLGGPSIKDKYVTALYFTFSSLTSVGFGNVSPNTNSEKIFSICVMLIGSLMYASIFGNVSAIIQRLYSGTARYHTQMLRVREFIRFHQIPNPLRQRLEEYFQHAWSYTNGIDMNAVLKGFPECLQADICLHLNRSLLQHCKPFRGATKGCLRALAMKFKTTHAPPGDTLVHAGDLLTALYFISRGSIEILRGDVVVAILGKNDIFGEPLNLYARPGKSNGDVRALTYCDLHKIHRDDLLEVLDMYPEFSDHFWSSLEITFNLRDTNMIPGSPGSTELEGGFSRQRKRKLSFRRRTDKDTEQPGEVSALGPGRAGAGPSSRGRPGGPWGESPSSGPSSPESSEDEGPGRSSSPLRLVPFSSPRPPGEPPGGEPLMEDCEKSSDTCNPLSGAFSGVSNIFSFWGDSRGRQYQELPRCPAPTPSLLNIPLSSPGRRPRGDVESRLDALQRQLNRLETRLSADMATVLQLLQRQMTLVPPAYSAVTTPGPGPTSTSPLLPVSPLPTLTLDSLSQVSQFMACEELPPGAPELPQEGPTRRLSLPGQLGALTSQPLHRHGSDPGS
- PROCEDURE_TEXT: Inhibition of human ERG at 10 uM incubated for 2 hrs by fluorescence polarization assay relative to control
Decide by inhibition at 2 h, 10 µM: equal to or exceeding -20% means YES, less means NO.

>>> discrete_label("Cc1ccc2c(=O)c(O)c(-c3csc4ccccc34)oc2c1")
"YES"
>>> discrete_label("O=c1c(O)c(-c2csc3ccccc23)oc2ccc(Br)cc12")
"NO"
>>> discrete_label("COc1ccc2oc(-c3cccc(-c4ccc5c(c4)OCO5)c3)c(O)c(=O)c2c1")
"YES"
>>> discrete_label("COc1ccc2oc(-c3ccco3)c(O)c(=O)c2c1")
"YES"
>>> discrete_label("O=c1c(O)c(-c2csc3ccccc23)oc2ccc(Cl)cc12")
"YES"
>>> discrete_label("COc1ccc2c(=O)c(O)c(-c3ccco3)oc2c1")
"YES"
>>> discrete_label("CCCCCCCCCCCCCCCCOP(=O)([O-])OCC[N+](C)(C)C [MILTEFOSINE]")
"YES"
>>> discrete_label("CCCOc1c(-c2csc3ccccc23)oc2ccc(OC)cc2c1=O")
"YES"
>>> discrete_label("COc1ccc2oc(-c3cccc(-c4ccc(OC)c(OC)c4)c3)c(O)c(=O)c2c1")
"YES"
>>> discrete_label("COc1ccc2oc(-c3csc4ccccc34)c(OC(=O)C(C)(C)C)c(=O)c2c1")
"NO"
>>> discrete_label("Cc1ccc2oc(-c3ccc(C)s3)c(O)c(=O)c2c1")
"YES"

----------
- PROCEDURE_TEXT: Selectivity index, ratio of CC50 for human THP1 cells to EC50 for luciferase expressing intracellular amastigote stage of Leishmania infantum infected in human THP1 cells
- Format: toxicity, cell-based
- CONDITION_SET: read-out: Ratio CC50/EC50
// selectivity ratio lookup, one value per entry
ASSAY_METRIC: selectivity ratio

>>> recorded_measurement("O=c1c(O)c(-c2csc3ccccc23)oc2ccc(Br)cc12")
9
>>> recorded_measurement("COc1ccc2oc(-c3csc4ccccc34)c(OC(C)=O)c(=O)c2c1")
6
>>> recorded_measurement("O=c1c(O)c(-c2csc3ccccc23)oc2ccc(F)cc12")
4
>>> recorded_measurement("CCCCC(=O)Oc1c(-c2csc3ccccc23)oc2ccc(OC)cc2c1=O")
5
>>> recorded_measurement("COc1ccc2oc(-c3csc4ccccc34)c(O)c(=O)c2c1")
17
>>> recorded_measurement("O=c1c(O)c(-c2csc3ccccc23)oc2ccc(Cl)cc12")
5

----------
// CC50 lookup, one value per entry
- PROCEDURE_TEXT: Cytotoxicity against human THP1 cells by MTT assay
- Format: cell-based, THP-1
ASSAY_METRIC: CC50

>>> recorded_measurement("COc1ccc2oc(-c3cc(C)cs3)c(O)c(=O)c2c1")
"25 to 50 µM"
>>> recorded_measurement("O=c1c(O)c(-c2ccco2)oc2ccc(O)cc12")
"20 to 50 µM"
>>> recorded_measurement("CCCCC(=O)Oc1c(-c2csc3ccccc23)oc2ccc(OC)cc2c1=O")
"12.5 to 25 µM"
>>> recorded_measurement("CCOc1c(-c2csc3ccccc23)oc2ccc(OC)cc2c1=O")
"25 to 50 µM"
>>> recorded_measurement("CCCOc1c(-c2csc3ccccc23)oc2ccc(OC)cc2c1=O")
"12.5 to 25 µM"
>>> recorded_measurement("COc1ccc2oc(-c3csc4ccccc34)c(OC(=O)C(C)(C)C)c(=O)c2c1")
"12.5 to 25 µM"
>>> recorded_measurement("COc1ccc2oc(-c3c[nH]c4ccccc34)c(O)c(=O)c2c1")
"12.5 to 25 µM"
>>> recorded_measurement("COc1ccc2c(=O)c(O)c(-c3ccc4c(c3)OCO4)oc2c1")
"> 100 µM"
>>> recorded_measurement("COc1ccc2oc(-c3cccc(-c4ccc(OC)c(OC)c4)c3)c(O)c(=O)c2c1")
"25 to 50 µM"
>>> recorded_measurement("Cc1ccc2c(=O)c(O)c(-c3csc4ccccc34)oc2c1")
"50 to 100 µM"
>>> recorded_measurement("COc1ccc2c(=O)c(O)c(-c3csc4ccccc34)oc2c1")
"25 to 50 µM"
>>> recorded_measurement("O=c1c(O)c(-c2csc3ccccc23)oc2ccc(Cl)cc12")
"12.5 to 25 µM"
>>> recorded_measurement("CCOc1ccc2c(=O)c(O)c(-c3csc4ccccc34)oc2c1")
"12.5 to 25 µM"
>>> recorded_measurement("Cc1csc(-c2oc3cccc(O)c3c(=O)c2O)c1")
"> 100 µM"
>>> recorded_measurement("O=c1c(O)c(-c2c[nH]c3ccccc23)oc2ccc(O)cc12")
"50 to 100 µM"
>>> recorded_measurement("COc1cccc2oc(-c3cc(C)cs3)c(O)c(=O)c12")
"12.5 to 25 µM"
>>> recorded_measurement("COc1ccc2oc(-c3csc4ccccc34)c(OC(C)=O)c(=O)c2c1")
"12.5 to 25 µM"
>>> recorded_measurement("O=c1c(O)c(-c2csc3ccccc23)oc2cc(Cl)ccc12")
"50 to 100 µM"
>>> recorded_measurement("Cc1ccsc1-c1oc2cc(O)ccc2c(=O)c1O")
"12.5 to 20 µM"
>>> recorded_measurement("Cc1csc(-c2oc3ccc(C)cc3c(=O)c2O)c1")
"> 100 µM"
>>> recorded_measurement("O=c1c(O)c(-c2csc3ccccc23)oc2ccccc12")
"< 25 µM"
>>> recorded_measurement("COc1ccc2oc(-c3ccco3)c(O)c(=O)c2c1")
"50 to 100 µM"
>>> recorded_measurement("O=c1c(O)c(-c2ccco2)oc2cc(O)ccc12")
"> 100 µM"
>>> recorded_measurement("Cc1csc(-c2oc3ccc(O)cc3c(=O)c2O)c1")
"10 to 25 µM"
